# testTarget: PDE2A (NM002599) (Homo sapiens, UniProt O00408)
# Construct: made in house; host or cells: baculovirus / SF21 insect cells
# Sequence (O00408 whole entry): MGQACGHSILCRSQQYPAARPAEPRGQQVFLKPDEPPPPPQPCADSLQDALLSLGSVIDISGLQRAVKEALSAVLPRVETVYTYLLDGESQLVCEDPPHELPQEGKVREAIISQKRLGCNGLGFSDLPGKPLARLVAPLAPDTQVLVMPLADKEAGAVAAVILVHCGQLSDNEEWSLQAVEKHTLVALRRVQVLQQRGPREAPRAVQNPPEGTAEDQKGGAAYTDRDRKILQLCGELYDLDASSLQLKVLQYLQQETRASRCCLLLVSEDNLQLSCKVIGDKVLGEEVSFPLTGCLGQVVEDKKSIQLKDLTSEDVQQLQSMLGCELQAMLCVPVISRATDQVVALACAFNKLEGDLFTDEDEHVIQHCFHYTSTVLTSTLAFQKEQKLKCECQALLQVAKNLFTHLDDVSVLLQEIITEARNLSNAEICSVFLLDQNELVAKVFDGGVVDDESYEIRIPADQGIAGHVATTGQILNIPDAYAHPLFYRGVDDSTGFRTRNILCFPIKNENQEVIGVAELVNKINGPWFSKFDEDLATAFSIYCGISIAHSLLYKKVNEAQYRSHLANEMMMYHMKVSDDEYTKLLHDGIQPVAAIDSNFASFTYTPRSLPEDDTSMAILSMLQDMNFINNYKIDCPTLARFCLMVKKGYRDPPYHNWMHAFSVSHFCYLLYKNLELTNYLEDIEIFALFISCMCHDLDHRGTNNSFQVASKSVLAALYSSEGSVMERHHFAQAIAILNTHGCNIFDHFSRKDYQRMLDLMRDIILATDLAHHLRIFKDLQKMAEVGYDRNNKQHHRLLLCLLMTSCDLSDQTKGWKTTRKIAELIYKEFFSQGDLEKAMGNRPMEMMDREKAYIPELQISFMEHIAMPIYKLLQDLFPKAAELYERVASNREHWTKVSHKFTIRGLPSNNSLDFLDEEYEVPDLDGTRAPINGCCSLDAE
# assayText: Inhibition of recombinant PDE2A (expressed in baculovirus/SF21-cells)
# Type: biochemical
# experimentalSetup: recombinant PDE2A, 0.5 μM [3H]-cAMP, 1000 nM cGMP, 37° C., 30 minutes, SPA; read-out: PDE2A IC50
pIC50: −log10 of the molar value.
Note to self: values exactly at 7 are true (1). So pIC50 at or above 7 is true (1), below is false (0).

Field: example entries. Status: answers known.
Asked: API: above_or_equal(metric=pIC50, cutoff=7) for item COc1cccc(-c2nc(C)c3nnc4ccc(OC)nc4n23)c1
Given back: true (1)

Asked: API: above_or_equal(metric=pIC50, cutoff=7) for item Cc1nc(-c2cc(Cl)ccc2Cl)n2c1nnc1ccc(Cl)nc12
Given back: true (1)

Asked: API: above_or_equal(metric=pIC50, cutoff=7) for item COc1ccc(-c2nc(C)c3nnc4ccc(OC)nc4n23)c(Cl)c1
Given back: true (1)

Asked: API: above_or_equal(metric=pIC50, cutoff=7) for item COc1ccc(OC)c(-c2nc(C)c3nnc4ccc(OC)nc4n23)c1
Given back: true (1)

New cases:
Asked: API: above_or_equal(metric=pIC50, cutoff=7) for item COc1ccc2nnc3c(C)nc(-c4cc(Cl)cnc4OC)n3c2n1
Given back: true (1)

Asked: API: above_or_equal(metric=pIC50, cutoff=7) for item CCOc1cccc(-c2nc(C)c3nnc4ccc(OC)nc4n23)c1F
Given back: false (0)

Asked: API: above_or_equal(metric=pIC50, cutoff=7) for item CCc1ccccc1-c1nc(C)c2nnc3ccc(OC)nc3n12
Given back: true (1)

Asked: API: above_or_equal(metric=pIC50, cutoff=7) for item COc1ccc2nnc3c(C)nc(-c4cc(C(C)=O)ccc4Cl)n3c2n1
Given back: true (1)

Asked: API: above_or_equal(metric=pIC50, cutoff=7) for item COc1ccc2nnc3c(C)nc(-c4cccnc4F)n3c2n1
Given back: true (1)

Asked: API: above_or_equal(metric=pIC50, cutoff=7) for item CCOc1ccc(F)c(-c2nc(C)c3nnc4ccc(OC)nc4n23)c1
Given back: true (1)

Asked: API: above_or_equal(metric=pIC50, cutoff=7) for item COc1ccc2nnc3c(C)nc(-c4cccnc4OC)n3c2n1
Given back: false (0)

Asked: API: above_or_equal(metric=pIC50, cutoff=7) for item COc1ccc2nnc3c(C)nc(-c4cccc(C)c4F)n3c2n1
Given back: true (1)

Asked: API: above_or_equal(metric=pIC50, cutoff=7) for item COc1ccc2nnc3c(C)nc(C4CCCCC4)n3c2n1
Given back: true (1)

###

This listing pairs compounds with measured melting point.

Asked: Can you share its melting point? I mean this compound: COc1ccc2nnc3c(C)nc(CC(C)C)n3c2n1
Given back: 143.5 to 145 °C

Asked: Can you share its melting point? I mean this compound: COc1ccc2nnc3c(C)nc(-c4ccccc4)n3c2n1
Given back: 214 to 217 °C

Asked: Can you share its melting point? I mean this compound: COc1ccc2nnc3c(C)nc(-c4ccccn4)n3c2n1
Given back: 216 to 220 °C

Asked: Can you share its melting point? I mean this compound: COc1ccc2nnc3cnc(C(C)C)n3c2n1
Given back: 159 to 162 °C

New cases:
Asked: Can you share its melting point? I mean this compound: CCCc1nc(C)c2nnc3ccc(OC)nc3n12
Given back: 163 to 165 °C

Asked: Can you share its melting point? I mean this compound: COc1ccc2nnc3cnc(-c4ccccc4Cl)n3c2n1
Given back: 190 to 193 °C

Asked: Can you share its melting point? I mean this compound: CCc1ncc2nnc3ccc(OC)nc3n12
Given back: 167 to 168 °C

Asked: Can you share its melting point? I mean this compound: Cc1nc(-c2cc(Cl)ccc2Cl)n2c1nnc1ccc(Cl)nc12
Given back: 151 to 154 °C

Asked: Can you share its melting point? I mean this compound: COc1ccc2nnc3c(-c4ccccc4)ncn3c2n1
Given back: 225 to 227 °C

Asked: Can you share its melting point? I mean this compound: Cc1cn(-c2ccc3nnc4c(C)nc(-c5cc(Cl)ccc5Cl)n4c3n2)c(-c2cc(Cl)ccc2Cl)n1
Given back: 130 °C
